experiment: Pharmacokinetic Determination (Mouse PK); format: in vivo, female CD-1 mice; details: female, CD-1, plasma, IV, 3.0 mg/kg, read-out: Vdss
REPORTED_METRIC: Vd
A complete answer gives the number and then names the unit.

C[C@@H]1Cc2c([nH]c3ccccc23)[C@@H](c2ccc(NC3CN(CCCF)C3)cn2)N1C12CC(C1)C2 [Compound 2]
31.9 L/kg
C[C@@H]1Cc2c([nH]c3ccccc23)[C@@H](c2ccc(NC3CN(CCCF)C3)cc2F)N1C12CC(C1)C2 [Compound 15]
66.4 L/kg
C[C@@H]1Cc2c([nH]c3ccccc23)[C@@H](c2c(F)cc(NC3CN(CCCF)C3)cc2F)N1C12CC(C1)C2 [Compound 1]
31.9 L/kg

### Prompt Return value of Vd for input C[C@@H]1Cc2c([nH]c3ccccc23)[C@@H](c2cnc(NC3CN(CCCF)C3)cn2)N1C12CC(C1)C2 [Compound 16] , no commentary.
### Response 11.8 L/kg

### Prompt Report Vd, nothing else, for this molecule: C[C@@H]1Cc2c([nH]c3ccccc23)[C@@H](c2ccc(NC3CN(CCCF)C3)cc2)N1C12CC(CO)(C1)C2 (single isomer, unassigned) [Compound 58]
### Response 42.3 L/kg

### Prompt Answer with the recorded Vd for the molecule listed here: C[C@@H]1Cc2c([nH]c3ccccc23)[C@@H](c2c(F)cc(O[C@@H]3CCN(CCCF)C3)cc2F)N1C12CC(C1)C2 (single isomer, unassigned) [Compound 5]
### Response 16.7 L/kg

### Prompt Given the molecule C[C@@H]1Cc2c([nH]c3ccccc23)[C@@H](c2c(F)cc(N[C@H]3CCN(CCCF)C3)cc2F)N1C12CC(CO)(C1)C2 (single isomer, unassigned) [Compound 70] , write its reported Vd.
### Response 12.2 L/kg

### Prompt # return recorded Vd for entry C[C@@H]1Cc2c([nH]c3ccccc23)[C@@H](c2ccc(O[C@H]3CCN(CCCF)C3)nc2)N1C12CC(C1)C2 (single isomer, unassigned) [Compound 10]
### Response 12.8 L/kg

### Prompt Look up and report measured Vd for this entry: CCCN1CC(Oc2ccc([C@@H]3c4[nH]c5ccccc5c4C[C@@H](C)N3C34CC(C3)C4)cc2)C1 [Compound 39]
### Response 16 L/kg

### Prompt Specify Vd for C[C@@H]1Cc2c([nH]c3ccccc23)[C@@H](c2c(F)cc(N[C@H]3CCN(CCCF)C3)cc2F)N1C12CC(C1)C2 [Compound 19] and stop.
### Response 23.2 L/kg

### Prompt Tell me its Vd given C[C@@H]1Cc2c([nH]c3ccccc23)[C@@H](c2c(F)cc(O[C@H]3CCN(CCCF)C3)cc2F)N1C12CC(C1)C2 (single isomer, unassigned) [Compound 6] as the entry.
### Response 16.7 L/kg

### Prompt Tell me Vd reported for C[C@@H]1Cc2c([nH]c3ccccc23)[C@@H](c2ccc(N[C@@H]3CN(CCCF)C[C@H]3F)cc2)N1C12CC(C1)C2 [Compound 75]
### Response 17.9 L/kg

### Prompt Note Vd for the molecule shown: C[C@@H]1Cc2c([nH]c3ccccc23)[C@@H](c2ccc(NC3CN(CCCF)C3)cc2)N1C12CC(C1)C2 [Compound 40]
### Response 49.6 L/kg

* * *

test: Pharmacokinetic Determination (Mouse PK); assay type: in vivo, female CD-1 mice; conditions: female, CD-1, plasma, IV, 3.0 mg/kg
AUC(0-t) overview
Answer shape: numeric part, then the unit.

C[C@@H]1Cc2c([nH]c3ccccc23)[C@@H](c2ccc(NC3CN(CCCF)C3)cc2)N1C12CC(C1)C2
1.47 µM·h
C[C@@H]1Cc2c([nH]c3ccccc23)[C@@H](c2c(F)cc(O[C@H]3CCN(CCCF)C3)cc2F)N1C12CC(C1)C2 (single isomer, unassigned)
2.93 µM·h
CCCN1CC(Oc2ccc([C@@H]3c4[nH]c5ccccc5c4C[C@@H](C)N3C34CC(C3)C4)cc2)C1
1.33 µM·h
C[C@@H]1Cc2c([nH]c3ccccc23)[C@@H](c2ccc(N[C@@H]3CN(CCCF)C[C@H]3F)cc2)N1C12CC(C1)C2
1.49 µM·h
C[C@@H]1Cc2c([nH]c3ccccc23)[C@@H](c2ccc(N[C@H]3CCN(CCCF)C3)cc2)N1C12CC(C1)C2
1.51 µM·h

### Prompt Specify reported AUC(0-t) for the compound shown: C[C@@H]1Cc2c([nH]c3ccccc23)[C@@H](c2c(F)cc(NC3CN(CCCF)C3)cc2F)N1C12CC(C1)C2
### Response 2.79 µM·h

### Prompt Quick one: give measured AUC(0-t) for C[C@@H]1Cc2c([nH]c3ccccc23)[C@@H](c2ccc(NC3CN(CCCF)C3)nc2)N1C12CC(C1)C2
### Response 0.59 µM·h

### Prompt Please give measured AUC(0-t) of the following entry: C[C@@H]1Cc2c([nH]c3ccccc23)[C@@H](c2c(F)cc(O[C@@H]3CCN(CCCF)C3)cc2F)N1C12CC(C1)C2 (single isomer, unassigned)
### Response 2.93 µM·h

* * *

experiment: Pharmacokinetic Determination (Mouse PK); format: in vivo, female CD-1 mice; details: female, CD-1, plasma, PO, 10.0 mg/kg
AUC(0-t) under 3 µM·h gets Y, anything at or over 3 µM·h gets N.

Worked set:
C[C@@H]1Cc2c([nH]c3ccccc23)[C@@H](c2ccc(NC3CN(CCCF)C3)cc2)N1C12CC(CO)(C1)C2 (single isomer, unassigned) [Compound 58]
Y
C[C@@H]1Cc2c([nH]c3ccccc23)[C@@H](c2c(F)cc(N[C@H]3CCN(CCCF)C3)cc2F)N1C12CC(CO)(C1)C2 (single isomer, unassigned) [Compound 70]
Y
C[C@@H]1Cc2c([nH]c3ccccc23)[C@@H](c2c(F)cc(NC3CN(CCCF)C3)cc2F)N1C12CC(C1)C2 [Compound 1]
N

### Prompt Lab note: AUC(0-t) threshold 3 µM·h. Does this compound come in strictly under it? C[C@@H]1Cc2c([nH]c3ccccc23)[C@@H](c2ccc(NC3CN(CCCF)C3)cn2)N1C12CC(C1)C2 [Compound 2]
### Response Y

### Prompt I wonder whether C[C@@H]1Cc2c([nH]c3ccccc23)[C@@H](c2ccc(NC3CN(CCCF)C3)cc2F)N1C12CC(C1)C2 [Compound 15] has AUC(0-t) below 3 µM·h. Can you tell?
### Response Y

### Prompt Lab log: compare recorded AUC(0-t) with 3 µM·h; is it strictly lower for C[C@@H]1Cc2c([nH]c3ccccc23)[C@@H](c2ccc(NC3CN(CCCF)C3)nc2)N1C12CC(C1)C2 [Compound 21] ?
### Response Y

### Prompt Hello, I'm reviewing records and need to know if AUC(0-t) of C[C@@H]1Cc2c(ccc3[nH]ncc23)[C@@H](c2ccc(NC3CN(CCCF)C3)cn2)N1CC(F)(F)F [AZD9833, reference compound] is below 3 µM·h. Could you check?
### Response N

### Prompt Given the entry C[C@@H]1Cc2c([nH]c3ccccc23)[C@@H](c2ccc(N[C@H]3CCN(CCCF)C3)cc2)N1C12CC(C1)C2 [Compound 42] , would its reported AUC(0-t) be below 3 µM·h?
### Response Y

### Prompt Regarding C[C@@H]1Cc2c([nH]c3ccccc23)[C@@H](c2cnc(NC3CN(CCCF)C3)cn2)N1C12CC(C1)C2 [Compound 16] , kindly confirm whether its AUC(0-t) is beneath 3 µM·h.
### Response Y

### Prompt Identify whether the compound C[C@@H]1Cc2c([nH]c3ccccc23)[C@@H](c2c(F)cc(NC3CN(CCCF)C3)cc2F)N1CC(F)(F)CO [GDC9545, reference compound] records AUC(0-t) below 3 µM·h.
### Response N

* * *

test system: MCF7; assay: Breast Cancer Cell Proliferation Assay (MCF-7), Cell Titer-Glo; format: cell-based; settings: Homo sapiens, MCF7, 120 h, MCF7 cells, 5 days of compound exposure
pIC50: −log10 of the molar value.
Measured pIC50, listed per entry.

Completed entries (count: 10):
C[C@@H]1Cc2c([nH]c3ccccc23)[C@@H](c2c(F)cc(O[C@H]3CCN(CCCF)C3)cc2F)N1C12CC(C(N)=O)(C1)C2 (single isomer, unassigned)
≥ 7.60
C[C@H]1Cc2c([nH]c3ccccc23)[C@H](c2c(F)cc(NC3CN(CCCF)C3)cc2F)N1C12CC(C(N)=O)(C1)C2 (single isomer, unassigned)
≤ 6.60
C[C@@H]1Cc2c([nH]c3ccccc23)[C@@H](c2ccc(N[C@@H]3CN(CCCF)C[C@H]3F)cc2)N1C12CC(C1)C2
≥ 7.60
C[C@@H]1Cc2c([nH]c3ccccc23)[C@@H](c2ccc(O[C@H]3CCN(CCCF)C3)nc2)N1C12CC(C1)C2 (single isomer, unassigned)
≥ 7.60
C=CCN1CC(Nc2ccc([C@@H]3c4[nH]c5ccccc5c4C[C@@H](C)N3C34CC(C3)C4)cc2)C1
≥ 7.60
C[C@@H]1Cc2c([nH]c3ccccc23)[C@@H](c2c(F)cc(N[C@H]3CCN(CCCF)C3)cc2F)N1C12CC(C1)C2
≥ 7.60
C[C@@H]1Cc2c([nH]c3ccccc23)[C@@H](c2ccc(NCCN3CCC(F)C3)nc2)N1C12CC(C1)C2 (some centres unmarked)
≤ 6.60
C[C@@H]1Cc2c([nH]c3ccccc23)[C@@H](c2ccc(OCCN3CC(CF)C3)cc2)N1C12CC(C1)C2
≥ 7.60
CCCN1C[C@@H](F)[C@H](Nc2ccc([C@@H]3c4[nH]c5ccccc5c4C[C@@H](C)N3C34CC(C3)C4)cc2)C1
≥ 7.60
C[C@@H]1Cc2c([nH]c3ccccc23)[C@@H](c2c(F)cc(NCCN3CCCC3)cc2F)N1C12CC(C1)C2
6.60 to 7.60

Okay, now this molecule:
### Prompt Report pIC50 under test system MCF7 for C[C@@H]1Cc2c([nH]c3ccccc23)[C@@H](c2ccc(NC3CN(CCCF)C3)cc2)N1C12CC(CO)(C1)C2 (single isomer, unassigned) .
### Response ≥ 7.60
